target: c-kit autophosphorylation (Phospho c-Kit Tyr721) in HMC 1.1 (exon 11/13) cells, V654A (Homo sapiens, UniProt P10721, V560G/V654A); construct: endogenous in cells; assay: pKIT Meso Scale Discovery (MSD) assay, inhibition of autophosphorylation of KIT, HMC1.1_V654A; settings: Table 1, cell line not named for Table 1, b1056 names pKIT HMC1.1_V654A, read-out: Code (IC50 for inhibition of autophosphorylation of KIT, pKIT MSD assay)
Sequence (P10721 26-976 V560G/V654A): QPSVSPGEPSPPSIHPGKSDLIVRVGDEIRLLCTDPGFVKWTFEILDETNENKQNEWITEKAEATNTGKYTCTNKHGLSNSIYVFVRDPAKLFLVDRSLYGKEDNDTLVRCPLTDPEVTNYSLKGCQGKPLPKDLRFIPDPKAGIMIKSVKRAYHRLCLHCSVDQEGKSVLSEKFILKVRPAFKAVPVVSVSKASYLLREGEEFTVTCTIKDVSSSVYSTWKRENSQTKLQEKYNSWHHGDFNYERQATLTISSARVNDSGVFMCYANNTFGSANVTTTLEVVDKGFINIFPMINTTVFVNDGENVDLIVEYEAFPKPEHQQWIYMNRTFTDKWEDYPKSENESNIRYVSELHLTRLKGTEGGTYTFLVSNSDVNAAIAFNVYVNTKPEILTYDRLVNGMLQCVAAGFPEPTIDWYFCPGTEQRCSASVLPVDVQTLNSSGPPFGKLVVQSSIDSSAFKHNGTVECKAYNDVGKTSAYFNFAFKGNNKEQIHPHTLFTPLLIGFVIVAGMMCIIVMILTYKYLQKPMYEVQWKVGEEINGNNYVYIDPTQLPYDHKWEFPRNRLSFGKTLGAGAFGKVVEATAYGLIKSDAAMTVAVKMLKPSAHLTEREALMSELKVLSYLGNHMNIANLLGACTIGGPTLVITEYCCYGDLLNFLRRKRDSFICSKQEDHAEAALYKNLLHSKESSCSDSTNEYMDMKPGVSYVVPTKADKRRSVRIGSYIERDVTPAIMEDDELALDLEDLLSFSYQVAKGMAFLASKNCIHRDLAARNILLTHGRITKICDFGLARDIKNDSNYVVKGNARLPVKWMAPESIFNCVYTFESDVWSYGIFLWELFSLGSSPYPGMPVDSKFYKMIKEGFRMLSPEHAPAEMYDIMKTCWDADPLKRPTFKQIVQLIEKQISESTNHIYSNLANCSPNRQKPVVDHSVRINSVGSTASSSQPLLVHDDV
pIC50: −log10 of the molar value. Counter-ions that a name gives are not always drawn.

>  <COMPOUND>
Cn1cc(-c2cnc(Nc3cc(N)nc(C(F)F)n3)cc2OCCCO)cn1 [Compound 83]

>  <pIC50>
7.40 to 8.00

$$$$
>  <COMPOUND>
CNC(C)Cn1cc(-c2cnc(Nc3cc(N)nc(C(F)F)n3)cc2OC2CC2)cn1 (stereo not drawn) [Compound 170]

>  <pIC50>
> 8.00

$$$$
>  <COMPOUND>
COc1cc(Nc2cc(N)nc(CF)n2)ncc1-c1cnn(C2CNC2)c1 [Compound 50]

>  <pIC50>
< 7.40

$$$$
>  <COMPOUND>
Nc1cc(Nc2cc(OC3COC3)c(-c3cnn(C4CNC4)c3)cn2)nc(C(F)F)n1 [Compound 168, formate]

>  <pIC50>
< 7.40

$$$$
>  <COMPOUND>
Nc1cc(Nc2cc(NC3CC3)c(C(=O)NCc3cocn3)cn2)nc(C(F)F)n1 [Compound 134]

>  <pIC50>
> 8.00

$$$$
>  <COMPOUND>
COc1cc(Nc2cc(N)nc(C(F)F)n2)ncc1-c1cnn(C[C@@H]2CCN2C)c1 (single isomer, unassigned) [Compound 139]

>  <pIC50>
> 8.00

$$$$
>  <COMPOUND>
Cn1cc(-c2cnc(Nc3cc(N)nc(C(F)F)n3)cc2OCC(F)(F)F)cn1 [Compound 132]

>  <pIC50>
> 8.00

$$$$
>  <COMPOUND>
Cn1cc(-c2cnc(Nc3cc(N)nc(C(F)F)n3)cc2OCC2CCO2)cn1 (stereo not drawn) [Compound 105]

>  <pIC50>
7.40 to 8.00

$$$$
>  <COMPOUND>
CNC(=O)c1cnc(Nc2cc(N)nc(C(F)F)n2)cc1N[C@H](C)C(F)F [Compound 73]

>  <pIC50>
> 8.00

$$$$
>  <COMPOUND>
CCNC(=O)c1cnc(Nc2cc(N)nc(C(F)F)n2)cc1NC [Compound 13]

>  <pIC50>
7.40 to 8.00

$$$$
>  <COMPOUND>
CN[C@H](C)Cn1cc(-c2cnc(Nc3cc(N)nc(C(F)F)n3)cc2OC)cn1 (single isomer, unassigned) [Compound 118]

>  <pIC50>
7.40 to 8.00

$$$$
>  <COMPOUND>
CC(C)Nc1cc(Nc2cc(N)nc(C(F)F)n2)ncc1C(=O)NC1CC1 [Compound 60, trifluoroacetate]

>  <pIC50>
> 8.00

$$$$
>  <COMPOUND>
CNc1cc(Nc2cc(N)nc(C(F)F)n2)ncc1C(N)=O [Compound 2]

>  <pIC50>
< 7.40

$$$$
>  <COMPOUND>
COc1cc(Nc2cc(N)nc(C(F)F)n2)ncc1-c1cnn(C2COC2)c1 [Compound 78]

>  <pIC50>
> 8.00

$$$$
>  <COMPOUND>
CCOc1cc(Nc2cc(N)nc(C(F)F)n2)ncc1-c1cnn(C2CNC2)c1 [Compound 98]

>  <pIC50>
7.40 to 8.00

$$$$
>  <COMPOUND>
Cn1cc(-c2cnc(Nc3cc(N)nc(C(F)F)n3)cc2OC(F)(F)F)cn1 [Compound 95]

>  <pIC50>
> 8.00

$$$$
>  <COMPOUND>
CNC(=O)c1cnc(Nc2cc(N)nc(C(F)F)n2)cc1NC1COC1 [Compound 42]

>  <pIC50>
7.40 to 8.00

$$$$
>  <COMPOUND>
CCNc1cc(Nc2cc(N)nc(CF)n2)ncc1C(=O)NC12CC(CO)(C1)C2 [Compound 96]

>  <pIC50>
7.40 to 8.00

$$$$
>  <COMPOUND>
CC(C)Nc1cc(Nc2cc(N)nc(C(F)F)n2)ncc1C(=O)NCc1cocn1 [Compound 147]

>  <pIC50>
> 8.00

$$$$
>  <COMPOUND>
Cn1cc(-c2cnc(Nc3cc(N)nc(C(F)F)n3)cc2OC[C@H]2C[C@H](O)C2)cn1 [Compound 144]

>  <pIC50>
7.40 to 8.00

$$$$
>  <COMPOUND>
CC(C)(O)CCn1cc(-c2cnc(Nc3cc(N)nc(C(F)F)n3)cc2OC2CC2)cn1 [Compound 185]

>  <pIC50>
> 8.00

$$$$
>  <COMPOUND>
CCC(C)CNc1cc(Nc2cc(N)nc(C(F)F)n2)ncc1C(=O)NC (stereo not drawn) [Compound 65]

>  <pIC50>
7.40 to 8.00

$$$$
>  <COMPOUND>
Cn1cc(-c2cnc(Nc3cc(N)nc(C(F)F)n3)cc2OCC2CCCCO2)cn1 (stereo not drawn) [Compound 172]

>  <pIC50>
7.40 to 8.00

$$$$
>  <COMPOUND>
CC(C)Oc1cc(Nc2cc(N)nc([C@H](C)F)n2)ncc1-c1cnn(C2COC2)c1 [Compound 129]

>  <pIC50>
> 8.00

$$$$
>  <COMPOUND>
COc1cc(Nc2cc(N)nc(C(F)F)n2)ncc1-c1cnn(C(F)(F)F)c1 [Compound 94]

>  <pIC50>
7.40 to 8.00

$$$$
>  <COMPOUND>
CC(C)Oc1cc(Nc2cc(N)nc([C@H](C)F)n2)ncc1-c1cnn(C)c1 [Compound 51]

>  <pIC50>
> 8.00

$$$$
>  <COMPOUND>
Nc1cc(Nc2cc(OC3CC3)c(-c3cnn(C[C@@H]4CCN4)c3)cn2)nc(C(F)F)n1 (single isomer, unassigned) [Compound 162]

>  <pIC50>
> 8.00

$$$$
>  <COMPOUND>
C[C@H](CF)Nc1cc(Nc2cc(N)nc(C(F)F)n2)ncc1C(=O)NC12CC(CO)(C1)C2 [Compound 189]

>  <pIC50>
7.40 to 8.00

$$$$
>  <COMPOUND>
CCNC(=O)c1cnc(Nc2cc(N)nc(C(F)F)n2)cc1NCC [Compound 30]

>  <pIC50>
7.40 to 8.00

$$$$
>  <COMPOUND>
C[C@@H](Oc1cc(Nc2cc(N)nc(C(F)F)n2)ncc1-c1cnn(C)c1)C(F)(F)F [Compound 163]

>  <pIC50>
> 8.00

$$$$
>  <COMPOUND>
C[C@@H](CF)Nc1cc(Nc2cc(N)nc(C(F)F)n2)ncc1C(=O)NCc1ccccn1 [Compound 186]

>  <pIC50>
> 8.00

$$$$
>  <COMPOUND>
CNC(=O)c1cnc(Nc2cc(N)nc([C@@H](C)F)n2)cc1NC(C)C [Compound 20]

>  <pIC50>
< 7.40

$$$$
>  <COMPOUND>
CC(C)Nc1cc(Nc2cc(N)nc(C(F)F)n2)ncc1C(=O)NCc1ccccn1 [Compound 158]

>  <pIC50>
> 8.00

$$$$

Each recorded value in this set is attributed to patent US20250270190A1.
